Target: HLA-A*6802 (human)
Assay: competition with 125I probe peptide for purified HLA
Details: remark: other sources report otherwise
Task for the reader: assign each of the following binders its reported pIC50.
Recall that pIC50 is obtained by taking minus log10 of the concentration measured in molar.

Query: Please report the recorded pIC50 for QLFEDNYAL [Her2/neu.106 (9-mer) …] .
Response: 5.68

Query: Please report the recorded pIC50 for CLTSTVQLV [Her2/neu.789 …] .
Response: 5.10

Query: Please report the recorded pIC50 for VVLGVVFGI [Her2/neu.665 …] .
Response: 5.70

All values here come from patent US20040018971A1.
